# reported cell count; entries follow
- measurementDescription: inhibitors of TNFa-induced NFkB p65 translocation, primary screen, imaging, HUVEC, MLSMR starter and 10KST1 sets (AID 438);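 further: compound added about 3h40 before a 20 min TNFalpha stimulation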
- studyConditions: HUVEC TNFa-induced p65 nuclear translocation; measured here: nuclei count (cytotoxicity indicator), at 2.08 µM

// worked examples, cell count included
* CN(C)CCCN1C(=O)C(O)=C(C(=O)c2cc3ccccc3o2)C1c1ccccn1 (centres undefined) | 511
* Cc1[nH]c2ccc(F)cc2c(=O)c1SC(F)(F)C(F)C(F)(F)F (centres undefined) | 491
* CCOC(=O)CC(=O)CSc1nc2c(cc1C#N)CCCCC2 | 510

Let us examine a further case.
Data point: CCN1C(=O)CC(N2CCN(c3ccc(OC)cc3)CC2)C1=O (centres undefined) ; cell count = 489

* * *

- studyTarget: Voltage-gated potassium channel subunit beta-2 (Rattus norvegicus) (UniProt P62483)
- Sequence (P62483 whole entry, looked up): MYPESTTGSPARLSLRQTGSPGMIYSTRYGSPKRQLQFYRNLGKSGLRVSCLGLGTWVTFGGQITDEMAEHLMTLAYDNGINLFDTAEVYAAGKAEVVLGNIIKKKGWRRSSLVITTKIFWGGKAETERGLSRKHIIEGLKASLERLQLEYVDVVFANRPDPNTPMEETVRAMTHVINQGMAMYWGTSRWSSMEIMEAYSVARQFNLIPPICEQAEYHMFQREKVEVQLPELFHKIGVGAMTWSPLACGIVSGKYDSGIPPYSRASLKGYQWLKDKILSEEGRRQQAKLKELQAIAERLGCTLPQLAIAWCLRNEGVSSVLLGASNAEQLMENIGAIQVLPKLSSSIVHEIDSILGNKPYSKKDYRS
- measurementDescription: KvBeta enzyme negative modulators, primary screen, biochemical, NADPH fluorescence (AID 622);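 further: slope of raw intensity against log time taken from 70 to 1610 s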
- studyConditions: recombinant KvBeta, 4-cyanobenzaldehyde reduction, at 10 µM, stronger effect = higher value
Assign class by fluorescence slope: not lower than -0.4 means Condition met; lower than -0.4 means Condition not met.

Data request: Evaluate CCCCC1(C(=O)OCC)CC(CN2CCOCC2)OC1=O (centres undefined) : fluorescence slope at minimum -0.4?
Data returned: Condition met

Data request: Evaluate Cc1cc(Cl)ccc1OCC(=O)OC(C)C(=O)N(C)C (centres undefined) : fluorescence slope at minimum -0.4?
Data returned: Condition not met

Data request: Evaluate c1cncc(-c2nnc3sc(-c4ccco4)nn23)c1 : fluorescence slope at minimum -0.4?
Data returned: Condition not met

Data request: Evaluate N#Cc1ccc(-c2ccco2)nc1SCC(=O)c1ccc(Cl)cc1 : fluorescence slope at minimum -0.4?
Data returned: Condition met

* * *

- measurementDescription: inhibitors of poly I:C-induced TLR3 signaling, primary screen, cell-based, poly I:C stimulus, luciferase, 10K MLSCN set (AID 602277)
- studyConditions: HEK293-TLR3 RL24 IRF3 luciferase reporter, at 10 µM
Activity calls are given as the source filed them.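 Rule for the calls: active = inhibition of the reporter signal at or above 50%; inactive = inhibition below 50%.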
Assign a class; possible classes are active, inactive

Before answering, review these 6 worked examples.
- CCCN(CCC)C(=O)C(CCC(=O)O)NC(=O)c1ccccc1 (centres undefined): inactive
- Cc1cc(/C=N\O)c(C)n1-c1ccncc1: inactive
- Cc1nnc(SCC(=O)N2CCC(C(N)=O)CC2)s1: inactive
- CCNCc1cc2cc(C)ccc2[nH]c1=O: inactive
- Cc1cc(C)n(S(=O)(=O)Cc2ccccc2)n1: inactive
- CC(=O)OCC(=O)[C@@]1(O)CC[C@H]2[C@@H]3CCC4=CC(=O)C=C[C@]4(C)[C@@]3(Cl)[C@@H](Cl)C[C@@]21C: inactive

Data request: Name the outcome recorded for CCC(NC(C)C)C(O)c1ccc(O)c(O)c1 (centres undefined) in the assay.
Data returned: inactive

Data request: Name the outcome recorded for C=CCn1c(=S)[nH]c2nc3c(cc2c1=O)COC(C)(C)C3 in the assay.
Data returned: inactive

Data request: Name the outcome recorded for S=C(N=Nc1ccccc1)NNc1ccccc1 in the assay.
Data returned: inactive

* * *

# reported fluorescence slope; entries follow
- studyTarget: Voltage-gated potassium channel subunit beta-2 (Rattus norvegicus) (UniProt P62483)
- measurementDescription: KvBeta enzyme negative modulators, primary screen, biochemical, NADPH fluorescence (AID 622);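 further: slope of raw intensity against log time taken from 70 to 1610 s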
- studyConditions: recombinant KvBeta, 4-cyanobenzaldehyde reduction, at 10 µM, stronger effect = higher value
Please reply with the number alone, leaving off any unit.

- O=C(O)CC(NCc1ccco1)C(=O)OCCc1ccccc1 (stereo not drawn): -0.398

Data point: C=C1C2(C(=O)Nc3nccs3)CCC(C2)C1(C)C (stereo not drawn) ; fluorescence slope = -0.4

Data point: CC1CN(C2CCN(C(=O)c3ccccc3)CC2)CC(C)O1 (stereo not drawn) ; fluorescence slope = -0.395
